Target: DGAT2
Conditions: ASO, HepG2, 2.5 µM
After the bases stand the sugars from the 5' end (letter, count) and the backbone: PS all phosphorothioate, else s phosphorothioate and o phosphodiester by linkage. Methylation of C is not given here. e = 2'-O-(2-methoxyethyl) (MOE); d = 2'-deoxy (DNA)
Entries and their target mRNA inhibition
observation type: target mRNA inhibition (%)

sequence code	assay system	reported
GTAAGCCTCGGTGTCCT (sugars e3 d10 e4, PS)	DGAT2	62
TCTTTGCTTGCCAGGTGAGC (sugars e5 d10 e5, PS)	DGAT2	67
CACCTGTTACTACATGTCTA (sugars e5 d10 e5, PS)	DGAT2	68
CTCACCCCTGTACTCAGCCC (sugars e5 d10 e5, PS)	DGAT2	72
TGCCACTCCCATTCTTTGAA (sugars e5 d10 e5, PS)	DGAT2	0
GTCCTCCTTAGCTTTAATCC (sugars e5 d10 e5, PS)	DGAT2	62

* * *

Target: APOL1
Conditions: ASO, A431, 1 µM
After the bases stand the sugars from the 5' end (letter, count) and the backbone: PS all phosphorothioate, else s phosphorothioate and o phosphodiester by linkage. Methylation of C is not given here. e = 2'-O-(2-methoxyethyl) (MOE); k = constrained ethyl (cEt); d = 2'-deoxy (DNA)

sequence code	assay system	target mRNA inhibition, %
GAACGCAATGCTGACT (sugars kkddddekekeddddd, PS)	APOL1	92
CAGTACAGAGCAGGAT (sugars k4 d9 k3, PS)	APOL1	94
GCTTTAAACTCAGGTG (sugars kkkddddkdkdkdddd, PS)	APOL1	93
AGGTTGTCCAGAGCTT (sugars k4 d9 k3, PS)	APOL1	69
CTTATGCTTACTCCAC (sugars k4 d9 k3, PS)	APOL1	90
GAACATTGAAACACCA (sugars k4 d9 k3, PS)	APOL1	89

* * *

Molecular target: IRF5
Settings: ASO, KARPAS-229, 4 µM
After the bases stand the sugars from the 5' end (letter, count) and the backbone: PS all phosphorothioate, else s phosphorothioate and o phosphodiester by linkage. Methylation of C is not given here. e = 2'-O-(2-methoxyethyl) (MOE); k = constrained ethyl (cEt); d = 2'-deoxy (DNA)
observation type: target mRNA inhibition (%)

sequence code	reported
ACTGACACAGGCGGAT (sugars kkdddddddddkekek, PS)	0
GTTCTTGGACTCTCAA (sugars kdddddddddkekeke, PS)	0
GTGTATTTCCCTGTCT (sugars k2 d9 e3 k2, PS)	16
TTCTGCAGGGAGTCAG (sugars kddddddddddkekek, PS)	4
ACCATTCTATGCCTTT (sugars kkkdddddddddkeke, PS)	49

* * *

Molecular target: ANGPTL2
Conditions: ASO, 25 µM
After the bases stand the sugars from the 5' end (letter, count) and the backbone: PS all phosphorothioate, else s phosphorothioate and o phosphodiester by linkage. Methylation of C is not given here. l = locked nucleic acid (LNA); d = 2'-deoxy (DNA)
Entries and their target mRNA inhibition

sequence code	unit of measurement	target mRNA inhibition
CAGGCACACTAATGAGA (sugars l2 d12 l3, PS)	%	9.52
GAACTCAGCCCAGTAGA (sugars l1 d14 l2, PS)	%	15.7
AACCATTTTGAGATTCCCC (sugars l1 d16 l2, PS)	%	17.6
TGATGATGCGGTTGTAG (sugars l3 d12 l2, PS)	%	70.3

* * *

Target: KRAS
Settings: ASO, A431, 2 µM
After the bases stand the sugars from the 5' end (letter, count) and the backbone: PS all phosphorothioate, else s phosphorothioate and o phosphodiester by linkage. Methylation of C is not given here. e = 2'-O-(2-methoxyethyl) (MOE); k = constrained ethyl (cEt); d = 2'-deoxy (DNA)
observation type: target mRNA inhibition (%)

sequence code	assay system	unit of measurement	reported
CCATTCAAAGTTCACA (sugars kkdddddddddkdkdk, PS)	KRAS	%	31
GATTGTGCTGAGCTTG (sugars k3 d9 k3 e1, PS)	KRAS	%	30
AGTCCAGTGATACTTT (sugars k3 d10 k3, PS)	KRAS	%	8
CTTGATTTGTCAGCAG (sugars kkddddddddkekekk, PS)	KRAS	%	33
TGTAGGGCATTTCTGA (sugars k3 d10 k3, PS)	KRAS	%	0
TCCATTTATGTGACTA (sugars kdddddddddkekeke, PS)	KRAS	%	15
TGGTGTAACATAGGTT (sugars kkddddddddkekekk, PS)	KRAS	%	55
GAAAAGTGTTTATGCA (sugars k3 d10 k3, PS)	KRAS	%	60
AATTACTTATGCAGAG (sugars k3 d10 k3, PS)	KRAS	%	44
GAGTCTTTATAGTAAT (sugars kdddddddddkekeke, PS)	KRAS	%	21
CCATTCAAAGTTCACA (sugars kkkddddddddkekek, PS)	KRAS	%	39
CTTTTAATGTCACAAG (sugars k3 d10 k3, PS)	KRAS	%	9
ACCATTCAAAGTTCAC (sugars kkkddddddddkekek, PS)	KRAS	%	26
TCCAGTGATACTTTCA (sugars k3 d9 k3 e1, PS)	KRAS	%	47
TGTTTATGCAATGTTA (sugars kkdddddddddkekek, PS)	KRAS	%	56
TAGTGATTAGGTCAAA (sugars kkddddddddkekekk, PS)	KRAS	%	42
AAATTGTGCAATGGTG (sugars k3 d10 k3, PS)	KRAS	%	48
GCTGTGAAACTCTCTA (sugars k3 d10 k3, PS)	KRAS	%	42
TCACTTCATTGTTTAA (sugars k3 d10 k3, PS)	KRAS	%	32
GCATTGCTAGTTCAAA (sugars k3 d10 k3, PS)	KRAS	%	46
GTGTTTATGCAATGTT (sugars kkkddddddddkekek, PS)	KRAS	%	66
TAATAATCCCCATTTC (sugars k3 d10 k3, PS)	KRAS	%	9
TTAATGTCACAAGCAG (sugars k3 d10 k3, PS)	KRAS	%	52
TTAGGAGTCTTTATAG (sugars k3 d10 k3, PS)	KRAS	%	30
CTTGATTTGTCAGCAG (sugars kkddddddddddkeke, PS)	KRAS	%	54
AGACTTGAAAAGTGTT (sugars k3 d10 k3, PS)	KRAS	%	28
TAATGGTGAATATCTT (sugars k3 d10 k3, PS)	KRAS	%	11
TTGTTTAAAAAAAAAA (sugars k3 d10 k3, PS)	KRAS	%	0
ACTTATGCAGAGAAAA (sugars k3 d10 k3, PS)	KRAS	%	37
GTTTATGCAATGTTAA (sugars k3 d10 k3, PS)	KRAS	%	55
TAATCTTTTAATGTCA (sugars k3 d10 k3, PS)	KRAS	%	7
GCTGTGAAACTCTCTA (sugars kddddddddddkekek, PS)	KRAS	%	41
ACCATTCAAAGTTCAC (sugars kkddddddddddkeke, PS)	KRAS	%	41

* * *

Target: IRF5
Details: ASO, KARPAS-229, 0.44444 µM
After the bases stand the sugars from the 5' end (letter, count) and the backbone: PS all phosphorothioate, else s phosphorothioate and o phosphodiester by linkage. Methylation of C is not given here. e = 2'-O-(2-methoxyethyl) (MOE); k = constrained ethyl (cEt); d = 2'-deoxy (DNA)
observation type: target mRNA inhibition (%)

sequence code	assay system	unit of measurement	reported
ACCACTGTGTACCCCA (sugars kekdddddddddeekk, PS)	IRF5	%	28
ACCACTGTGTACCCCA (sugars k3 d10 k3, PS)	IRF5	%	16
GGAAGTGAGTCTCAAA (sugars kkddddddddddkeke, PS)	IRF5	%	6
TATTTCTGCTCCAGGT (sugars k3 d9 k3 e1, PS)	IRF5	%	46
CCATTCTATGCCTTTT (sugars kkdddddddddkekek, PS)	IRF5	%	29
GTCTTGACCTCCCGCT (sugars kkddddddddddkeke, PS)	IRF5	%	38
ACGAGTTATGGGAAGG (sugars k3 d10 k3, PS)	IRF5	%	50
TCCAATTTTGCATTCC (sugars kekdddddddddeekk, PS)	IRF5	%	42
TTGTCTAGTGTCATGG (sugars k3 d10 k3, PS)	IRF5	%	37
CTGATATGATACCTAA (sugars k3 d10 k3, PS)	IRF5	%	42
GGTTCTTGGACTCTCA (sugars kekdddddddddeekk, PS)	IRF5	%	31

* * *

Biological target: IRF5
Conditions: ASO, KARPAS-229, 12 µM
After the bases stand the sugars from the 5' end (letter, count) and the backbone: PS all phosphorothioate, else s phosphorothioate and o phosphodiester by linkage. Methylation of C is not given here. e = 2'-O-(2-methoxyethyl) (MOE); k = constrained ethyl (cEt); d = 2'-deoxy (DNA)
observation type: target mRNA inhibition (%)

sequence code	reported
TATTTCTGCTCCAGGT (sugars k3 d9 k3 e1, PS)	74
GTCTTGACCTCCCGCT (sugars kkddddddddddkeke, PS)	78
TCCAATTTTGCATTCC (sugars kekdddddddddeekk, PS)	82
TTGTCTAGTGTCATGG (sugars k3 d10 k3, PS)	84
GGAAGTGAGTCTCAAA (sugars kkddddddddddkeke, PS)	65
GGTTCTTGGACTCTCA (sugars kekdddddddddeekk, PS)	81
